system: MDA-MB-231 breast; experiment: NCI tumour cell line growth inhibition, 48 h
measured-parameter: TGI

Cc1cc(N(C)C)ccc1N=Nc1ccc2ncccc2c1 | > 100 µM
O=C(CC(O)(C(F)(F)Cl)C(F)(F)Cl)CC(O)(C(F)(F)Cl)C(F)(F)Cl | 5.29 µM
CCOC(=O)Nc1ccc2c3c(cccc13)-c1ccccc1-2 | > 100 µM
NC(=S)Nc1c(S(N)(=O)=O)cc(S(N)(=O)=O)c(Cl)c1Cl | > 100 µM
O=C(OC1C#CCSCC#C/C=C\1)c1cnc2ccccc2n1 (stereo unspecified) | > 100 µM
CC1(C)CC(=O)c2c(nc3c(ccc4ccccc43)c2-c2ccc(NC(=O)CCCCCCCCC(=O)Nc3ccc(-c4c5c(nc6c4ccc4ccccc46)CC(C)(C)CC5=O)cc3)cc2)C1 | > 100 µM
COc1ccc(/C=C/C(=O)c2ccc(B(O)O)cc2)cc1O | > 85 µM
CSc1nc(SC)c2cnn(-c3ccnc4cc(Cl)ccc34)c2n1 | 67.4 µM
CC(=O)N[C@@H](Cc1ccc(OP(=O)(O)O)cc1)C(=O)N[C@H]1CCC(=O)N2CCC[C@@H](C(=O)NCc3cccc4ccccc34)N2C1=O | > 25 µM
CCOC(=O)c1c2c(n(Cc3ccccc3)c1C)-c1nc[nH]c1C(=O)C2=O | 28.3 µM
O=c1[nH]ncc2[nH]c(-c3ccccc3)cc12 | > 100 µM
CCN1C2=C(SC(=S)C1=C1SC(C(=O)c3ccccc3)=C(C(=O)c3ccccc3)S1)SC(=Nc1ccccc1)C2=O | > 100 µM
C#CCOCCCC(=O)O | > 100 µM
Cc1ccc2[nH]c3c(C)c4cc[n+](C)cc4c(C)c3c2c1 | > 44.7 µM
Nc1cc2c(c3ccccc13)C(CCl)CN2C(=O)c1cc2cc(NC(=O)c3cc4ccccc4o3)ccc2[nH]1 (stereo unspecified) | > 1100 µM
CC(Cc1ccc(O)cn1)(NC(=O)c1ccccc1)C(=O)O (stereo unspecified) | > 100 µM
CCOc1ccc(-n2c(=O)c3nn4c(=O)n(-c5ccc(OCC)cc5)c(=O)c4nn3c2=O)cc1 | > 100 µM
CC(C)(C)OC(=O)CCC1NC(=O)[C@@H]2Cc3c([nH]c4ccccc34)C(c3ccccc3)N2C1=O (stereo partly specified) | 42.1 µM
OC1CCC(COC(c2ccccc2)(c2ccccc2)c2ccccc2)O1 (stereo unspecified) | 32.1 µM
COc1ccc(C(=O)O[C@@H]2CCN3CC[C@H](C)[C@H]23)cc1 | > 100 µM
Cn1c(=O)oc2cc(C(=O)CN3CCN(Cc4ccc5c(c4)OCO5)CC3)c(Cl)cc21 | > 100 µM

---

test system: CCRF-CEM leukemia; assay: NCI tumour cell line growth inhibition, 48 h
measured-parameter: TGI (µM)

OC1CCC(COC(c2ccccc2)(c2ccccc2)c2ccccc2)O1 (stereo not given) | 35.8
NCCSC1(O)C(=O)c2ccccc2-c2ccccc21 (stereo not given) | 6.82
COc1cc2cc(Oc3ccc(NC(=O)Nc4ccc(F)c(C(F)(F)F)c4)cc3)c(C)nc2cc1OCCN1CCOCC1 | 11.5
CN1CCN(Cn2nc(-c3ccccc3)n(/N=C/c3ccc(-c4ccc(Cl)cc4Cl)o3)c2=S)CC1 | 23.2

---

Listed below: TGI values for each entry.
test system: SF-295 CNS; experiment: NCI tumour cell line growth inhibition, 48 h
measured-parameter: TGI (µM)

CN1CCN(Cn2nc(-c3ccccc3)n(/N=C/c3ccc(-c4ccc(Cl)cc4Cl)o3)c2=S)CC1 | 29.9
CC(C)(Cl)C(Br)CCC(=CCBr)CBr (mixture of isomers) | 11

---

tested on: 786-0 renal; experiment: NCI tumour cell line growth inhibition, 48 h; in the data active = GI50 below about 0.43 µM; inactive = the rest
Possible outcomes: class 1 = active, class 0 = inactive

Cc1cc(C)c2c(=O)cc(-c3ccc(F)cc3)[nH]c2n1 | class 0
O=C1/C(=C\c2ccc(Cl)cc2)CN(C(=O)c2ccccc2)C/C1=C\c1ccc(Cl)cc1 | class 0
Cc1ccc([I+]c2ccc(C)cc2)cc1 | class 0
CCOC(=O)c1c2c(n(Cc3ccccc3)c1C)-c1nc[nH]c1C(=O)C2=O | class 0
O=C([CH-]C(=O)c1ccccc1)c1ccccc1.O=C([CH-]C(=O)c1ccccc1)c1ccccc1.[CH2-]CCC.[CH2-]CCC.[Sn+4] | class 1

---

tested on: A549 NSCLC; assay: NCI tumour cell line growth inhibition, 48 h
measured-parameter: TGI

CC(C)(Cl)C(Br)CCC(=CCBr)CBr (mixture of isomers) | 29.9 µM
CNC(=O)N(CCCC(NC(C)=O)C(=O)NCc1ccccc1)Cc1ccccc1 (centres undefined) | > 100 µM
CO[C@@H]1[C@H](N(C)C(=O)c2ccccc2)C[C@@H]2O[C@]1(C)n1c3ccccc3c3c4c(c5c6ccccc6n2c5c31)C(=O)NC4=O | > 100 µM
Cc1cc2c(=O)c3ccc(Cl)cc3[nH]c2c(C(=O)O)c1C | > 100 µM
O=P1(O)c2ccccc2CSCc2ccccc21 | > 100 µM
Nc1ccc(N=Nc2ccc(-c3ccc(N=Nc4c(S(=O)(=O)O)cc5cc(S(=O)(=O)O)c(N=Nc6ccc([N+](=O)[O-])cc6)c(N)c5c4O)cc3)cc2)c2cc(S(=O)(=O)O)ccc12 | > 100 µM
CCOC(=O)c1sc(Nc2cc(Cl)ccc2Cl)nc1C | > 100 µM
NCCSC1(O)C(=O)c2ccccc2-c2ccccc21 (centres undefined) | 2.91 µM
O=C1NC(=N[C@@H]2C[C@H]2c2ccccc2)S/C1=C\c1ccc2ncccc2c1 | 6.71 µM
CC(=O)c1cc2sc3ccccc3c2[nH]1 | > 100 µM
Cc1ccc(OC2CC(n3cnc4c(=O)[nH]c(Br)nc43)OC2Oc2ccc(C)cc2)cc1 (centres undefined) | 69.7 µM
O=C(Cc1c(C(=O)Nc2ccccc2)sc(C(=O)Nc2ccccc2)c1CC(=O)Nc1ccccc1)Nc1ccccc1 | > 100 µM
C/C(CC(O)(C(F)(F)Cl)C(F)(F)Cl)=N\Nc1ccccc1 | > 100 µM
CC1(C)CCCC2(C)[C@@H]1CC[C@]13C[C@](C)(CC[C@@H]21)[C@@H]3CO (some centres undefined) | > 100 µM
Cc1ccc([I+]c2ccc(C)cc2)cc1 | > 100 µM
O=C1/C(=C\c2ccc(Cl)cc2)CN(C(=O)c2ccccc2)C/C1=C\c1ccc(Cl)cc1 | > 45.6 µM
Brc1ccc2[nH]cc([C@@H]3CN[C@@H](c4c[nH]c5ccc(Br)cc45)CN3)c2c1 | 19.4 µM
Cc1nn(C(=O)c2ccc(Cl)cc2)c2c1C(c1ccccc1)SC(N)=N2 (centres undefined) | > 10 µM
Nc1n[nH]c2ccc([C@H]3[C@@H]4C5CCC(C5)[C@@H]4c4c(ccc5[nH]ncc45)N3S(=O)(=O)C3CC3)cc12 (some centres undefined) | > 25.6 µM

---

tested on: EKVX NSCLC; experiment: NCI tumour cell line growth inhibition, 48 h
Listed below: TGI values for each entry.
measured-parameter: TGI (µM)

CO[C@@H]1C[C@H]2[C@@H]3CC[C@H]([C@@H](C)COC(C)=O)[C@@]3(C)CC[C@@H]2[C@@]2(C)CC[C@H]3C[C@]312 | 28
C/C(=N/NC(=S)Nc1ccccc1C)c1ccccn1 | 6.46
CCCC(c1cc(C(C)(C)C)c(O)cc1C)c1cc(C(C)(C)C)c(O)cc1C | 7.75

---

Listed below: GI50 values for each entry.
system: DU-145 prostate; assay: NCI tumour cell line growth inhibition, 48 h
measured-parameter: GI50

CC[C@@]1(O)C(=O)OCc2c1cc1n(c2=O)Cc2cc3c(OC)cccc3nc2-1 | 0.00266 µM
COc1cc2cc(Oc3ccc(NC(=O)Nc4ccc(F)c(C(F)(F)F)c4)cc3)c(C)nc2cc1OCCN1CCOCC1 | 3.5 µM
Cc1cc(S(=O)(=O)Nc2n[nH]c(-c3ccc(Cl)cc3)c2C#N)c(S)cc1Cl | > 100 µM
COc1c(O)cc2c(c1CC=C(C)C)OC(=O)c1c(cc(O)c(CC=C(C)C)c1O)O2 | 4.18 µM
CC(=O)N[C@@H](Cc1ccc(OP(=O)(O)O)cc1)C(=O)N[C@H]1CCC(=O)N2CCC[C@@H](C(=O)NCc3cccc4ccccc34)N2C1=O | > 25 µM
CCOC(=O)Cc1csc(Nc2nc(O)c(C3=c4ccccc4=NC3=O)s2)n1 | 24.6 µM
Nc1n[nH]c2ccc([C@H]3[C@@H]4C5CCC(C5)[C@@H]4c4c(ccc5[nH]ncc45)N3S(=O)(=O)C3CC3)cc12 (stereo partly specified) | 0.212 µM
Fc1cc(C2=Nn3c(nnc3-c3cc(F)c(Cl)cc3Cl)SC2)c(Cl)cc1Cl | 36.6 µM
CSc1nc(SC)c2cnn(-c3ccnc4cc(Cl)ccc34)c2n1 | 42.6 µM
COc1ccc(/C=C/C(=O)c2ccc(B(O)O)cc2)cc1O | 6.21 µM
CCOC(=O)c1c2c(n(Cc3ccccc3)c1C)-c1nc[nH]c1C(=O)C2=O | 9.83 µM
